pKi: −log10 of the molar value.
Below: compounds with pKi recorded for Prothrombin (Homo sapiens) in separate published works.

Please review the following examples before continuing.
Nc1ncnc2cc(CN3CCN(Cc4nc5ccc(Cl)cc5[nH]4)CC3=O)ccc12: < 5.40
O=C(Nc1ccc(Cl)cc1)c1cc(Cl)ccc1NC(=O)c1sc2ccccc2c1Cl: < 5.30
CCOC(=O)C(CCc1ccc(C(=N)N)cc1)Cn1cnc2ccc(C(=N)N)cc21 (centres undefined): < 4.68

// next entry
Req: Report pKi under test system Prothrombin (Homo sapiens) for CCOC(=O)C(CCc1ccc(C(=N)N)cc1)Cn1cnc2cc(C(=N)N)ccc21 (centres undefined) .
Resp: < 4.68

---

Below: compounds with Ki recorded for Prothrombin (Homo sapiens) in separate published works.

Please review the following examples before continuing.
O=C(Nc1cccc(F)c1C(=O)Nc1ccc(Cl)cc1)c1sc2ccccc2c1Cl: > 5 µM
COc1ccc(-n2nc(C)cc2C(=O)Nc2ccc(-c3ccccc3S(N)(=O)=O)cc2F)cc1: > 21 µM
Cc1cnc(NCCc2ccccn2)c(=O)n1CC(=O)NCc1cc(Cl)ccc1OCC(F)(F)F: 0.0005 µM

// next entry
Req: Report Ki under test system Prothrombin (Homo sapiens) for c1ccc(COc2ccc(C[n+]3ccccc3)cc2)cc1 .
Resp: > 500 µM

---

pKi: −log10 of the molar value.
Below: molecules with pKi recorded for Prothrombin (Homo sapiens, UniProt P00734) in separate published works.

Please review the following examples before continuing.
N=C(N)c1cccc(Oc2ccc(C(F)(F)F)c(Oc3cccc(C(=N)N)c3)n2)c1: < 5.30
COc1ccc(C(=N)N)cc1Oc1nc(Oc2cccc(C(=O)N(C)C)c2)c(F)c(C)c1F: < 5.30

Req: Query pKi for CCOC(=O)NCc1cccc(-c2ccc(C(=O)N[C@H](C)[C@@H](Cc3cccc(C(=N)N)c3)C(=O)OC)cc2)c1
Resp: < 5.40

---

Below: molecules with pKi recorded for Prothrombin (Homo sapiens, UniProt P00734) in separate published works.
pKi: −log10 of the molar value.

Please review the following examples before continuing.
N=C(N)c1ccc(CNC(=O)CNC(=O)[C@@H](N)CCC(=O)O)cc1: < 3.00
Cc1ccc(NC(=O)c2sc3ccccc3c2Cl)c(C(=O)Nc2ccc(C#N)cc2)c1: < 5.30
N=C(N)NCc1ccc(C2CC/C(=C/I)OC2=O)cc1 (stereo unspecified): 4.83

Req: Report pKi under test system Prothrombin (Homo sapiens, UniProt P00734) for Cc1cc2ccc1[C@@H](C)COC(=O)Nc1ccc(C3(C(=O)O)CCC3)c(c1)CN(C)C(=O)[C@@H]2Nc1ccc2c(N)ncc(F)c2c1 .
Resp: < 4.88

Req: Report pKi under test system Prothrombin (Homo sapiens, UniProt P00734) for Cc1c(F)c(Oc2cccc(CC(=O)N(C)C)c2)nc(Oc2cccc(C(=N)N)c2)c1F .
Resp: < 5.30

Req: Report pKi under test system Prothrombin (Homo sapiens, UniProt P00734) for Nc1noc2ccc(-n3nc(C(F)(F)F)cc3C(=O)N3CCCCc4cc(-c5ccccc5S(N)(=O)=O)ccc43)cc12 .
Resp: < 5.20

---

pKi: −log10 of the molar value.
Below: compounds with pKi recorded for Prothrombin (Homo sapiens) in separate published works.
RESULT_TYPE: pKi

Please review the following examples before continuing.
Cc1nn(-c2ccc3onc(N)c3c2)c2c1CCN(c1ccc(-c3ccccc3CN3CCCC3)cc1)C2=O: 6.92
NCCCC[C@H](NC(=O)[C@@H]1CCCN1C(=O)[C@H](N)Cc1ccccc1)C(=O)c1nccs1: 6.84

P = CCOC(=O)CN(C(=O)[C@H](CC(=O)NC[C@@H]1CCCN(C(=N)N)C1)NS(=O)(=O)c1ccc2ccccc2c1)C1CCCCC1
Q = O=C(CNC(=O)[C@@H](CCc1cccc[n+]1[O-])NS(=O)(=O)Cc1ccccc1)NCc1cccc(Cl)c1
Req: Thinking about recorded pKi values, which is higher, P or Q ? The response must carry the label of the picked entry.
Resp: P
